target: D(2) dopamine receptor (Rattus norvegicus); assay: Compound was tested for antagonistic activity against D2 receptor from rat striatum, used [3H]raclopride as radioligand
Sequence (P61169 whole entry): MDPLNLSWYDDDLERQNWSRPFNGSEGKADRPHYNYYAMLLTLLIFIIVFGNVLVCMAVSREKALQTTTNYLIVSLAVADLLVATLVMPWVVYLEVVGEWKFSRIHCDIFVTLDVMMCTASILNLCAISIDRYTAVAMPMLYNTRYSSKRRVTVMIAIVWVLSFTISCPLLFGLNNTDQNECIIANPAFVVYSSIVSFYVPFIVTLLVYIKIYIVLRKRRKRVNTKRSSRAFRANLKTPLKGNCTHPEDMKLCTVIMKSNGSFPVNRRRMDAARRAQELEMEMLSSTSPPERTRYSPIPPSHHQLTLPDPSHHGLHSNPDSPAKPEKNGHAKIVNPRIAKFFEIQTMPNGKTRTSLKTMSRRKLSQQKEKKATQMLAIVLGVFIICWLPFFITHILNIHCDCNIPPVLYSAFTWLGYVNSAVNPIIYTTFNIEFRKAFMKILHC
test_readout: Ki (nM)
Just the number please, in nM, no unit attached.

compound	Ki / nM
C=CCN1CC[C@H]2c3cccc(O)c3CC[C@H]21	49
C=CCN1CCC2c3c(O)cccc3CCC21 (racemic)	25
CCCN[C@@H]1CCc2c(OC)cccc2[C@@H]1C	179
C=CCN1CC[C@@H]2c3cccc(O)c3CC[C@@H]21	259
CCCN(CCC)[C@@H]1Cc2cccc3ccc(=O)n(c23)C1 (racemic)	18.8
CCCN(CCC)[C@@H]1Cc2cccc3c2N(CC(=O)N3)C1 (racemic)	28
C=CCN1CCC2Cc3c(O)cccc3C[C@H]21 (mixture of isomers)	25
CCCN1C[C@H]2c3c(cccc3OC)CC[C@H]21 (racemic)	329
CCCN(CCC)[C@@H]1CCc2c(OC)cccc2[C@@H]1C	22
C=CCN1CCC2c3cccc(O)c3CCC21 (racemic; 15c)	198

For record C=CCN1CCC2Cc3c(cccc3OC)CC21 (racemic) the listed Ki is 429

So for C=CCN1CCC2c3cccc(OC)c3CC[C@@H]21 (mixture of isomers) , the logged Ki turned out to be 99

# Ki of CCCN1CCC2c3cccc(O)c3CCC21 (racemic; 14a) = 33

The compound identified as C=CCN1CC[C@H]2Cc3c(O)cccc3CC21 (single isomer, unassigned) registered its Ki at 47

The reported Ki of the compound CCCN(CCC)[C@@H]1Cc2cccc3nc(S)n(c23)C1 (racemic) was 39

Input CCCN1CCC2Cc3c(O)cccc3CC21 (racemic) . Output Ki: 296

Recorded Ki (compound CCCN1CCC2Cc3c(cccc3OC)C[C@H]21 (mixture of isomers) ): 877

Sample Oc1cccc2c1CC[C@@H]1NCCC[C@@H]21 (racemic) ; Ki observed: 38

----------
assay: Binding affinity against 5-hydroxytryptamine 1A receptor from bovine hippocampus, used [3H]8-OH-DPAT as radioligand
Below, each entry is listed alongside its reported pKi.
Expect pKi as a plain number equal to -log10 of the molar concentration.

In the examples that follow, each entry is paired with its recorded pKi.
1. CCCN1[C@H](C)C[C@@H]2Cc3cccc(OC)c3C[C@@H]21 6.42
2. CCCN1CC[C@H]2c3c(cccc3OC)CC[C@H]21 9.70

The recorded pKi for CCCN1[C@@H](C)C[C@@H]2Cc3cccc(OC)c3C[C@@H]21 is 7.96

----------
molecular target: D(2) dopamine receptor (Homo sapiens); assay: Compound was tested for agonistic activity against D2 receptor from cloned CHO cells, used [3H]U-86170 as radioligand
Sequence (P14416 whole entry): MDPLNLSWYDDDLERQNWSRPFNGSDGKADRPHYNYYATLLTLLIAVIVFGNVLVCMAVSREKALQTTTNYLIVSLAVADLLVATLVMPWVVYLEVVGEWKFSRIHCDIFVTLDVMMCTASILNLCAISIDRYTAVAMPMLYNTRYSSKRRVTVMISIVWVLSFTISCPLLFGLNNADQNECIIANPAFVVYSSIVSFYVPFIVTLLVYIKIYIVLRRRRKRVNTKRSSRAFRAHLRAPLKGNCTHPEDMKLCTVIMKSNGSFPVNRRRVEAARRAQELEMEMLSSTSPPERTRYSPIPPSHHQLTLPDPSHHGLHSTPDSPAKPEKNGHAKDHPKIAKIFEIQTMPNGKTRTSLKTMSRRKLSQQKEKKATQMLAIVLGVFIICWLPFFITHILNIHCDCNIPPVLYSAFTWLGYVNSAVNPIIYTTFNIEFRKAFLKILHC
pKi: −log10 of the molar value.
Classify on pKi using low bin (below 7), mid bin (7 to below 8), high bin (8 or more)

Examples with answers:
compound	group_label
CCCN(CCC)[C@@H]1Cc2cccc3nc(S)n(c23)C1 (racemic)	high bin
CCCN1CCC2Cc3c(O)cccc3C[C@H]21 (mixture of isomers)	high bin
CCCN(CCC)[C@@H]1Cc2cccc3c2N(C1)C(=O)NC3 (racemic)	mid bin
C=CCN1CCC2Cc3c(O)cccc3C[C@H]21 (mixture of isomers)	high bin
C=CCN1CC[C@@H]2c3cccc(O)c3CC[C@@H]21	mid bin

Band of CCCN1CCC2c3cccc(O)c3CCC21 (racemic; 15a) ? low bin

Sort C=CCN1CC[C@H]2Cc3c(O)cccc3CC21 (single isomer, unassigned) into one of the categories. low bin

Entry CCCN(CCC)[C@@H]1Cc2cccc3ccc(=O)n(c23)C1 (racemic) belongs to which category? high bin

Which pKi category applies to CN1C[C@@H](NC(=O)C(C)(C)C)CC2c3cccc4[nH]c(Cl)c(c34)C[C@H]21 (stereo partly specified) here? high bin
